- target_entity: UniProtKB P27815
- Sequence (P27815 1-647 isoform P27815-4): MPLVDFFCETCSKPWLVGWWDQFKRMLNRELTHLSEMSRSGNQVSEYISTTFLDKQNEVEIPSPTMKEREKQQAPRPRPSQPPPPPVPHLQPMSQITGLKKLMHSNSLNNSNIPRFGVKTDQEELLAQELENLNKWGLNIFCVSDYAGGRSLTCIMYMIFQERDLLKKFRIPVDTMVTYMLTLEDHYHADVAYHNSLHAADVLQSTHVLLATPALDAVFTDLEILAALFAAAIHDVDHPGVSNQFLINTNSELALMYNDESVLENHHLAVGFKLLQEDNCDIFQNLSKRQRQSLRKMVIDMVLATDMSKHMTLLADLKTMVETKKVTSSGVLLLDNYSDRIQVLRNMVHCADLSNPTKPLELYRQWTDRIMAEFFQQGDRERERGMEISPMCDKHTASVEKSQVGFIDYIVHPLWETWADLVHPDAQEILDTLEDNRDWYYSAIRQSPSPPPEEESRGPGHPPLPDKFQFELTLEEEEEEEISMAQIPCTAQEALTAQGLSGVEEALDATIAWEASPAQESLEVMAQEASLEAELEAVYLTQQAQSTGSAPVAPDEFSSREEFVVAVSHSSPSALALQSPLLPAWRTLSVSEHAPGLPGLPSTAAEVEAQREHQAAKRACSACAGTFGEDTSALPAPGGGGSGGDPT
- protocol_summary: PDE4A inhibition, IMAP fluorescence polarization protocol
- assay_setup: recombinant enzyme; mean ± SEM of three measurements
quantity_measured: IC50 (nM)
Response body: numeric value in nM, unit text excluded.

Query :: Give reported IC50 value for COc1ccc(CCNS(=O)(=O)c2cc3c(cc2C)OCO3)cc1OC
Result :: 700

###

- target_entity: PDE4C (Homo sapiens, UniProt Q08493)
- Sequence (Q08493 whole entry): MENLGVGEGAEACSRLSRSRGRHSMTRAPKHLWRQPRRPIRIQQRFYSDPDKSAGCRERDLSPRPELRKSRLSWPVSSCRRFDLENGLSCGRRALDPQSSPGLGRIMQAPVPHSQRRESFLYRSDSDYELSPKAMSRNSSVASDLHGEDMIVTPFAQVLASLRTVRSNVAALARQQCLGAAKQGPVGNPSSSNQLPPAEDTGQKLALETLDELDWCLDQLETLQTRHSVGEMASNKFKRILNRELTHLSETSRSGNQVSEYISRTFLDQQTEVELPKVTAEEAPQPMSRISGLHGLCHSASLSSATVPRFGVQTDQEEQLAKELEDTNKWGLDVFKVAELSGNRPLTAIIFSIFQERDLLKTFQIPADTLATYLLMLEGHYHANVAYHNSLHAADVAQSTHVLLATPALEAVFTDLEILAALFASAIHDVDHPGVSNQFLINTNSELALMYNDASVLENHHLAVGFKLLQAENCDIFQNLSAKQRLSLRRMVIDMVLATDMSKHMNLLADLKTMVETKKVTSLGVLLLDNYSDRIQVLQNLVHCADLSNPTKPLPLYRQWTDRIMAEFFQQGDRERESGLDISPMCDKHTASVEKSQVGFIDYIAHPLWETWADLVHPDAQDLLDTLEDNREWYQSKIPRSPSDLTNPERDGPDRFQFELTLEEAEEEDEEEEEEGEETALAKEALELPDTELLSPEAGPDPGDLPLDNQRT
- protocol_summary: PDE4C inhibition, IMAP fluorescence polarization protocol
- assay_setup: recombinant enzyme; mean ± SEM of three measurements
- Method: The enzymatic reactions were carried at room temperature in a 96-well black plate by co-incubating 25 μL of 200 nM FAM-cAMP (R7513), 5 μL of putative inhibitory compounds and 20 μL of the PDE4 isoform dissolved in assay buffer (R7364) for 1 h. […] The inhibitory activities of the new sulfonamide derivatives were evaluated for their selectivity against the four isoforms of human PDE4, i.e. PDE4A, PDE4B, PDE4C, and PDE4D, using an IMAP-FP protocol.
quantity_measured: IC50 (nM)
Field format: number, assumed nM, no unit text.

Query :: Supply measured IC50 of COc1ccc(CCNS(=O)(=O)c2cc3c(cc2C)OCO3)cc1OC in your reply.
Result :: 1100
